# measured.target: Lysophosphatidic acid receptor 3 (Homo sapiens)
# Sequence (Q9UBY5 whole entry): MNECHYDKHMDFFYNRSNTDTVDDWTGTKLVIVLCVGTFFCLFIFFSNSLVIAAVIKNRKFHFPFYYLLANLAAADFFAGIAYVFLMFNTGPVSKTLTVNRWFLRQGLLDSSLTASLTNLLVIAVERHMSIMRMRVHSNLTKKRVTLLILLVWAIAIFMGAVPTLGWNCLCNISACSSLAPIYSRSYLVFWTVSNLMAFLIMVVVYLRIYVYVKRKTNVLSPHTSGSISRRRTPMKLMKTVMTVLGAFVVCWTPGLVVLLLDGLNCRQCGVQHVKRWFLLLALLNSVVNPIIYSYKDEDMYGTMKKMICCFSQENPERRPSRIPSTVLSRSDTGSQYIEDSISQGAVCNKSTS
# run.description: Antagonist activity at Lysophosphatidic acid 3 (LPA3) receptor
experimental.readout: pIC50
Numbers only, as −log10 of the molar value.

CCCCCCCC/C=C\CCCCCCCC(=O)N[C@@H](COP(=O)(O)O)Cc1ccc(OCc2cccc(OC)n2)cc1	6.34

Lab note: next compound to report on.
Request: Return reported pIC50; argument: CCCCCCCC/C=C\CCCCCCCC(=O)N[C@H](CCP(=O)(O)O)Cc1ccc(OCc2ncc(C)c(OC)c2C)cc1
Response: 5.40

* * *

Assay read-out Ki; system under study: Lysophosphatidic acid receptor 1 (Homo sapiens).
Quote the value and follow it with the unit of measurement.

CCCCCCCC/C=C\CCCCCCCC(=O)N[C@@H](COP(=O)(O)O)Cc1ccc(OCc2ncc(C)c(OC)c2C)cc1	28 nM
CCCCCCCC/C=C\CCCCCCCC(=O)N[C@@H](COP(=O)(O)O)Cc1ccc(OCc2cc(OCC)ccn2)cc1	26 nM

Now take the following molecule into account.
Request: What does the record list as Ki for CCCCCCCC/C=C\CCCCCCCC(=O)N[C@@H](COP(=O)(O)O)Cc1ccc(OCc2cc(OCCC)ccn2)cc1 ?
Response: 64 nM

* * *

# measured.target: Lysophosphatidic acid receptor 1 (Homo sapiens, UniProt Q92633)
# Sequence (Q92633 whole entry): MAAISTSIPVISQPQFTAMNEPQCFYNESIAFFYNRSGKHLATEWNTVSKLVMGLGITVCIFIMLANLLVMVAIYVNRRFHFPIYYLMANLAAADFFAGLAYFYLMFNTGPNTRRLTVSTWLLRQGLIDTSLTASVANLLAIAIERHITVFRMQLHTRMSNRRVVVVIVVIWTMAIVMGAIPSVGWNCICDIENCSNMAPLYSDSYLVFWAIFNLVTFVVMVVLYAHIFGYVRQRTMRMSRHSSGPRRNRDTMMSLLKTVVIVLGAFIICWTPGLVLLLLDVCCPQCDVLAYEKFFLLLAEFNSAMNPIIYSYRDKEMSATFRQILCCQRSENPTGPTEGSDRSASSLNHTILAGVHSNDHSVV
Task for the reader: assign each of the following compounds its reported IC50.
One number for each entry, in µM.

Worked examples, 3 compounds total:
CCCCCCCC/C=C\CCCCCCCC(=O)N[C@@H](COP(=O)(O)O)Cc1ccc(OCc2cc(OCCOC)ccn2)cc1	0.114
CCCCCCCC/C=C\CCCCCCCC(=O)N[C@@H](COP(=O)(O)O)Cc1ccc(OCc2ccncc2)cc1	0.735
CCCCCCCC/C=C\CCCCCCCC(=O)N[C@@H](COP(=O)(O)O)Cc1ccc(OCc2cc(OCC)ccn2)cc1	0.143

Next compound, please.
Request: I'd like to know its IC50. The compound in question is CCCCCCCC/C=C\CCCCCCCC(=O)N[C@H](COP(=O)(O)O)Cc1ccc(OCc2ncc(C)c(OC)c2C)cc1
Response: 3.69

* * *

pIC50: −log10 of the molar value.
In what follows, each item is paired with its pIC50 for Lysophosphatidic acid receptor 1 (Homo sapiens).

See these solved cases before continuing.
CCCCCCCC/C=C\CCCCCCCC(=O)N[C@H](COP(=O)(O)O)Cc1ccc(OCc2cccc(OC)n2)cc1	< 5.00
CCCCCCCCCCCCCCCC(=O)N[C@H](CCP(=O)(O)O)Cc1ccc(OCc2ccccn2)cc1	< 5.00
CCCCCCCC/C=C\CCCCCCCC(=O)N[C@H](COP(=O)(O)O)Cc1ccc(OCc2ccncc2)cc1	< 5.00
CCCCCCCC/C=C\CCCCCCCC(=O)N[C@H](CCP(=O)(O)O)Cc1ccc(OCc2ccccn2)cc1	< 5.00
CCCCCCCC/C=C\CCCCCCCC(=O)N[C@H](COP(=O)(O)O)Cc1ccc(OCc2cc(OC)c3ccccc3n2)cc1	< 5.00

We next turn to a different molecule, shown below.
Request: Endpoint output: pIC50 of CCCCCCCC/C=C\CCCCCCCC(=O)N[C@@H](CCP(=O)(O)O)Cc1ccc(OCc2ncc(C)c(OC)c2C)cc1 . Value?
Response: < 5.00
